System: NCI-H460 lung
# valid calls are class 1 (active), class 0 (inactive); nothing else

>  <smiles>
Cc1ccc(C)c(N2CCN(c3ccncc3N)CC2)c1

>  <label-class>
class 0

$$$$

[Q] Hello, I am checking results. What call was entered for "CCc1ccc([OH2+])c(C(=O)[O-])c1.CCc1ccc([OH2+])c(C(=O)[O-])c1.CCc1ccc([OH2+])c(C(=O)[O-])c1.CCc1ccc([OH2+])c(C(=O)[O-])c1.[Cu+2].[Cu+2]" ?
[A] class 0

[Q] Hello, I am checking results. What call was entered for "COc1cc(OC)c(/C=C/S(=O)(=O)Cc2ccc(OC)c(N)n2)c(OC)c1" ?
[A] class 1

[Q] Hello, I am checking results. What call was entered for "CN1CCN(Cc2ccc(NC(=O)c3cncc(C#Cc4c(N)ncc5ccccc45)c3)cc2C(F)(F)F)CC1" ?
[A] class 1

* * *

Listed next: entries and their corresponding GI50.
Tested on: HOP-92 NSCLC
test-protocol: NCI tumour cell line growth inhibition, 48 h

>  <smiles>
Nc1nc(SCC#CCCl)c2[nH]cnc2n1

>  <GI50>
2.16 µM

$$$$
>  <smiles>
Cc1ccc(C)c(N2CCN(c3ccncc3N)CC2)c1

>  <GI50>
12.3 µM

$$$$
>  <smiles>
Cc1ccc2nc(CN(CCN(Cc3nc4ccc(C)cc4[nH]3)Cc3nc4ccc(C)cc4[nH]3)Cc3nc4ccc(C)cc4[nH]3)[nH]c2c1

>  <GI50>
1.45 µM

$$$$

Query compound follows.
[Q] Provide one value: measured GI50 of "COC(=O)[C@]12CC[C@@H](C)[C@H](C)[C@@H]1C1=CC[C@@H]3[C@@]4(C)C[C@@H](OC(C)=O)[C@H](OC(C)=O)[C@@](C)(COC(C)=O)[C@@H]4[C@H](O)C[C@@]3(C)[C@]1(C)CC2"
[A] 3.9 µM

* * *

Tested on: NCI-H226 lung
test-protocol: NCI tumour cell line growth inhibition, 48 h
property-label: TGI

Worked set:
>  <molecule>
CC(=O)OC1COC(N2C(=O)C(=O)c3ccccc32)C(OC(C)=O)C1OC(C)=O (stereo not given)

>  <test-result>
> 100 µM

$$$$
>  <molecule>
COc1cc2c3c(c4ccc(O)cc4c2cc1OC)[C@@H](O)[C@@H]1CCCN1C3

>  <test-result>
0.0137 µM

$$$$
>  <molecule>
CC1(C)OCC(/C=C\C(O)CC2(C)OCCO2)CO1 (stereo not given)

>  <test-result>
> 100 µM

$$$$
>  <molecule>
CN(C)NC(=O)NC12CC3CC(CC(C3)C1)C2

>  <test-result>
> 100 µM

$$$$
>  <molecule>
O=c1[nH]nc(-c2cccc([N+](=O)[O-])c2)[nH]1

>  <test-result>
> 100 µM

$$$$
>  <molecule>
O=C(CC1(O)C(=O)Nc2ccccc21)c1cccc(O)c1 (stereo not given)

>  <test-result>
> 100 µM

$$$$
>  <molecule>
COc1ccc2cc(CNCCCCCCNC(=O)Nc3cccc4ccccc34)ccc2c1

>  <test-result>
> 100 µM

$$$$
>  <molecule>
COc1cc(O)c(C(=O)C2Cc3ccccc32)c(OC)c1 (stereo not given)

>  <test-result>
86 µM

$$$$

[Q] Provide one value: measured TGI of "CC(C)=CC(=O)c1[nH]c2ccccc2c1CC(=O)NCCc1cnc[nH]1"
[A] > 100 µM

[Q] Provide one value: measured TGI of "O=C1N[C@@H]([C@H]2CC[C@H](Cl)CN2)C(=O)N[C@H]1[C@H]1CC[C@H](Cl)CN1"
[A] 11.6 µM

[Q] Provide one value: measured TGI of "CCOC(=O)c1c(N2CCN(C)CC2)[nH]c(=O)c(C(c2c(Cl)cccc2Cl)c2c(O)c(C(=O)OCC)c(N3CCN(C)CC3)[nH]c2=O)c1O"
[A] 52.6 µM

[Q] Provide one value: measured TGI of Cc1ccc(NC(c2ccccc2)P(=O)(c2ccccc2)c2ccccc2)cc1 (stereo not given)
[A] > 100 µM

[Q] Provide one value: measured TGI of COc1cc2c(cc1O)CCN[C@@]21CS[C@H]2c3c(OC(C)=O)c(C)c4c(c3C(COC1=O)N1C2C2NC(Cc3cc(C)c(OC)c(O)c32)[C@@H]1O)OCO4 (stereo not given in full)
[A] 0.000273 ng/mL

[Q] Provide one value: measured TGI of "O=C(NCCN1CCOCC1)c1cc2c(Oc3ccc(NC(=O)C4(C(=O)Nc5ccc(F)cc5)CC4)cc3)ccnc2[nH]1"
[A] 50.3 µM

* * *

Test system: SW-620 colon
test-protocol: NCI tumour cell line growth inhibition, 48 h
property-label: TGI

>  <molecule>
c1cc(CSP234N5CCN2CCN3CCN4CC5)cc(CSP234N5CCN2CCN3CCN4CC5)c1

>  <test-result>
> 100 µM

$$$$
>  <molecule>
COc1cc2c(c(O)c1OC)C(O)C1CCC(=O)N1C2c1ccc2c(c1)OCO2 (stereo not given)

>  <test-result>
> 100 µM

$$$$
>  <molecule>
COc1cc(/C=N/NC(=O)c2cnn3c2NC(c2ccccc2)C3)ccc1OCc1ccccc1 (stereo not given)

>  <test-result>
2.76 µM

$$$$
>  <molecule>
COc1ccc(/C=N/n2c(-c3ccccc3)n[nH]c2=O)c(OC)c1

>  <test-result>
> 100 µM

$$$$

Query molecule follows.
[Q] Provide one value: measured TGI of "COC(=O)[C@]12CC[C@@H](C)[C@H](C)[C@@H]1C1=CC[C@@H]3[C@@]4(C)C[C@@H](OC(C)=O)[C@H](OC(C)=O)[C@@](C)(COC(C)=O)[C@@H]4[C@H](O)C[C@@]3(C)[C@]1(C)CC2"
[A] > 100 µM

* * *

Test system: SK-MEL-5 melanoma
test-protocol: NCI tumour cell line growth inhibition, 48 h
property-label: TGI

Worked set:
>  <compound>
COC1=CC(=O)[C@@]2(C)C(C)[C@H](c3ccccc3)[C@H]2C1=O (stereo not given in full)

>  <test-result>
> 100 µM

$$$$
>  <compound>
CN1CCN(Cc2ccc(NC(=O)c3cncc(C#Cc4c(N)ncc5ccccc45)c3)cc2C(F)(F)F)CC1

>  <test-result>
1.38 µM

$$$$

[Q] // fetch TGI for "COc1cc(/C=N\Nc2ccccc2)ccc1OC(=O)c1ccccc1" ; system: SK-MEL-5 melanoma
[A] 18.9 µM

[Q] // fetch TGI for COc1ccc(N2C(=O)[C@@H]3[C@@H]4CC(C)CC[C@@H]4c4c([nH]c5ccccc45)[C@@H]3C2=O)cc1 (stereo not given in full) ; system: SK-MEL-5 melanoma
[A] > 100 µM

[Q] // fetch TGI for "COc1cccc(NC(=O)/C(CS(=O)(=O)CCC(C(C)=O)C(C)=O)=N\NC(C)(C)C)c1" ; system: SK-MEL-5 melanoma
[A] > 100 µM

[Q] // fetch TGI for "COc1ccc2c(Cl)cc(NC(=S)Nc3ccccc3)nc2c1" ; system: SK-MEL-5 melanoma
[A] > 100 µM

[Q] // fetch TGI for "COc1ccc(/C=N/n2c(-c3ccccc3)n[nH]c2=O)c(OC)c1" ; system: SK-MEL-5 melanoma
[A] > 100 µM

[Q] // fetch TGI for CCOC(=O)C(=O)CC(=O)C(Br)C(Br)c1ccc(Cl)cc1 (stereo not given) ; system: SK-MEL-5 melanoma
[A] > 100 µM

[Q] // fetch TGI for "COc1cc(C(=O)/C=C/c2c[nH]c3ccccc23)cc(OC)c1OC" ; system: SK-MEL-5 melanoma
[A] 0.775 µM

[Q] // fetch TGI for "Cc1cc2nc3c(N)nn(CCCN(C)C)c3nc2cc1C" ; system: SK-MEL-5 melanoma
[A] > 100 µM

* * *

Listed next: entries and their corresponding GI50.
System: PC-3 prostate
test-protocol: NCI tumour cell line growth inhibition, 48 h

Worked set:
>  <molecule>
Cc1ccc(C)c(N2CCN(c3ccncc3N)CC2)c1

>  <system-name>
PC-3 prostate

>  <GI50>
14.2 µM

$$$$
>  <molecule>
COc1cc(/C=N/NC(=O)c2cnn3c2NC(c2ccccc2)C3)ccc1OCc1ccccc1 (centres undefined)

>  <system-name>
PC-3 prostate

>  <GI50>
0.967 µM

$$$$
>  <molecule>
O=C(O)CN(CCN(CC(=O)O)CC(=O)O)CC(=O)O.[Cu+2].[Na+]

>  <system-name>
PC-3 prostate

>  <GI50>
> 100 µM

$$$$
>  <molecule>
O=C(c1ccccc1)c1nn(-c2cccc(Cl)c2)c2nc3nc(-c4ccccc4)cc(=O)n3nc12

>  <system-name>
PC-3 prostate

>  <GI50>
> 25 µM

$$$$
>  <molecule>
CCc1ccc([OH2+])c(C(=O)[O-])c1.CCc1ccc([OH2+])c(C(=O)[O-])c1.CCc1ccc([OH2+])c(C(=O)[O-])c1.CCc1ccc([OH2+])c(C(=O)[O-])c1.[Cu+2].[Cu+2]

>  <system-name>
PC-3 prostate

>  <GI50>
> 70.5 µM

$$$$
>  <molecule>
OC[C@H]1C[C@](O)(c2ccccc2Cl)[C@@H](c2ccccc2Cl)O1

>  <system-name>
PC-3 prostate

>  <GI50>
24.2 µM

$$$$

[Q] Provide one value: measured GI50 of "COC(=O)[C@]12CC[C@@H](C)[C@H](C)[C@@H]1C1=CC[C@@H]3[C@@]4(C)C[C@@H](OC(C)=O)[C@H](OC(C)=O)[C@@](C)(COC(C)=O)[C@@H]4[C@H](O)C[C@@]3(C)[C@]1(C)CC2"
[A] 0.535 µM

[Q] Provide one value: measured GI50 of "Nc1nc(SCC#CCCl)c2[nH]cnc2n1"
[A] 14.6 µM

[Q] Provide one value: measured GI50 of "C=C(CN1CCN(c2cc(C(F)(F)F)cc(C(F)(F)F)c2)CC1)c1ccc(C(=O)Nc2ccccc2N)cc1"
[A] 2.92 µM

[Q] Provide one value: measured GI50 of "CCOC(=O)c1c(CN2CCCCC2)nc2ccc(Cl)cc2c1-c1ccccc1"
[A] 23.8 µM

[Q] Provide one value: measured GI50 of "CNC(=O)c1sc(-n2cnc3cc(OC)c(OC)cc32)cc1OCc1ccccc1C(F)(F)F"
[A] > 25 µM

[Q] Provide one value: measured GI50 of O=C(CC1(O)C(=O)Nc2ccc(Cl)cc21)c1ccc(C(=O)NCC2CCC3(CC2)OOC2(CCCCC2)OO3)cc1 (centres undefined)
[A] 1.88 µM

[Q] Provide one value: measured GI50 of "COc1cccc(/C=C\C(=O)c2ccccc2)c1"
[A] 3.73 µM

[Q] Provide one value: measured GI50 of "N#Cc1ccc2c(-c3ccnc(NC4CC4)n3)c(-c3ccc(F)cc3)nn2c1"
[A] > 25 µM
